test: Spectrophotometric pH titration, determination of protonation constants; format: physicochemical; details: aqueous 0.1 M KCl solution, 25° C., fit to a single protonation, read-out: ground-state pKa (pKH1) of the pyridyl acceptor
Measurement Kind: pKa

Briefly, pKa measured for O=S(=O)([O-])CCCOc1ccc(-c2cnc(-c3ccccn3)s2)cc1.[Na+] [compound 2, sodium salt] : 2.34

Briefly, pKa measured for O=S(=O)([O-])CCCOc1ccc(-c2cnc(-c3ccncc3)s2)cc1.[Na+] [compound 1, sodium salt] : 4.49
